System: E. fecalis
Assay method text: MIC against E. fecalis
Type: cell-based
Measurement setup: Table 5, vancomycin-sensitive; read-out: MIC EF
Provide the reported MIC of each item.
A bare number is not enough; add the unit after it.

May I ask what MIC has been recorded for "CCc1cc(Nc2cc(=O)n(CCCO)c(=O)[nH]2)ccc1C" ?
4.1 µg/mL

Entry to check: "CCc1cc(Nc2cc(=O)n(CCO)c(=O)[nH]2)ccc1C"
6.5 µg/mL

Entry to check: "CCc1cc(Nc2cc(=O)n(CCOC)c(=O)[nH]2)ccc1C"
6.2 µg/mL

Entry to check: "CCc1cc(Nc2cc(=O)n(CCCOC)c(=O)[nH]2)ccc1C"
1.9 µg/mL

Entry to check: CCc1cc(Nc2cc(=O)[nH]c(=O)[nH]2)ccc1C [EMAU, 6-(3-ethyl-4-methylanilino)uracil, reference compound]
25 µg/mL
